# Assay Info: qHTS for induction of synthetic lethality in tumor cells producing 2HG: qHTS for the HT-1080-IDH1KD cell line
# Condition Parameters: HT-1080 IDH1 knockdown viability, ATP luminescence, 48 h; series mostly up to 46.1 µM
In all, about 360,000 compounds went through this assay and about 7,500 (2.1%) were called active. About 8% were inconclusive and are not listed. The call rests on the fitted dose curve; in most records, active means well fitted cell-killing curve with a large enough effect; inconclusive means small, poorly fitted or top-dose-only effect, or effect the other way, or another doubt; inactive means no such curve, though single readings can be large or run the other way. The sample as a whole holds a higher share of actives than the screen did.
Use one of these outcomes when replying: class 1 (active), class 0 (inactive)

Given CC1=C(C(=O)N2CCOCC2)CC(CC(=O)NCC2CCCCC2)C(=O)N1Cc1ccc(F)cc1 (stereo not given) , state the outcome it received in this test.
class 0

Identify the outcome logged in this assay for the compound shown: "Cc1nccn1-c1ccc(NC(=O)[C@H]2O[C@@H](n3cnc4c(N)ncnc43)[C@H](O)[C@@H]2O)cc1"
class 0

Which outcome was assigned to "CCOC1=C2CN(S(=O)(=O)c3ccc(C)cc3)[C@H](c3cccs3)C[C@H]2[C@H]2C(=O)N(c3ccccc3)C(=O)[C@H]2C1" in this test?
class 0

What was the test verdict on "Cc1ccc(CN2CCC(n3nccc3NC(=O)CCCc3ccccc3)CC2)o1" ?
class 0

// outcome(item) with item = "COc1ccc(CN2CCC(n3nccc3NC(=O)CCCc3ccccc3)CC2)cc1C"
class 1

Any idea what this test logged for "CC(C)(C)NC(=O)NC(=O)COC(=O)Cc1ccc(Cl)cc1Cl" ?
class 0

// outcome(item) with item = CC(C)(C)CC(=O)Nc1nc(C(N)Cc2ccc(C(F)(F)F)cc2)cs1 (stereo not given)
class 1

Status in this test for CCOC(=O)C1CCCN(C(=O)c2ccc(N(C)C)cc2)CC1 (stereo not given) ?
class 0

What did the test return for "C[C@@H]1CN([C@H](C)CO)C(=O)CCCn2cc(nn2)CO[C@H]1CN(C)S(C)(=O)=O" ?
class 0

Assay outcome for NC(c1csc(NC(=O)Nc2cccc(C(F)(F)F)c2)n1)C1CCCCC1 (stereo not given) : what was it?
class 1

How did this test come out for "COC(=O)[C@H](CCSC)NC(=O)Nc1ccc(OC)cc1" ?
class 0

Test call for this compound, please: O=C(NC1CCCC1)C1c2ccccc2OCC(=O)N1Cc1ccccc1 (stereo not given)
class 0

What classification did "Nc1nc2c(ncn2[C@@H]2O[C@H](CNCc3ccc(OCCCN4CCOCC4)cc3)[C@@H](O)[C@H]2O)c(=O)[nH]1" end up with in this test?
class 0

Hello, I am checking results. What call was entered for "C[C@H]1Cn2cnc(C(=O)N[C@@H](Cc3c[nH]c4ccccc34)C(=O)OC(C)(C)C)c2C(=O)N1" ?
class 0

Please state the recorded outcome for this compound: COc1ccc(CC(N)c2csc(NC(=O)Nc3ccc(C(C)C)cc3)n2)cc1 (stereo not given)
class 1

Test call, this compound: COc1ccc(C(N)c2csc(NC(=O)Nc3cccc(C(F)(F)F)c3)n2)cc1 (stereo not given)
class 1

Which result was noted for this compound in the test: COc1ccccc1NC(=O)C(CC(=O)O)Cc1cc(C)cc(C)c1 (stereo not given)
class 0

Which outcome was entered for the compound "O=C(NCC(F)(F)F)c1ccc(S(=O)(=O)NCCc2ccc3c(c2)OCCO3)cc1" in this test?
class 0

What call does the record list for "CC(C)(C)c1cc(C(=O)NN)n(Cc2ccc(Cl)cc2Cl)n1" ?
class 1

Hello, I am checking results. What call was entered for "COc1cc(CN2CCC(n3nccc3NC(=O)CCCc3ccccc3)CC2)ccc1O" ?
class 0

====

# Assay Info: qHTS for induction of synthetic lethality in tumor cells producing 2HG: qHTS for the HT-1080-IDH1KD cell line
# Condition Parameters: HT-1080 IDH1 knockdown viability, ATP luminescence, 48 h; series mostly up to 46.1 µM
About 7,500 (2.1%) of roughly 360,000 compounds were called active. Not shown: some 8% with an inconclusive outcome. Calls come from the whole dose curve; as a rule, active = well fitted cell-killing curve with a large enough effect; inconclusive = small, poorly fitted or top-dose-only effect, or effect the other way, or another doubt; inactive = no such curve, though single readings can be large or run the other way. The sample holds actives, similar compounds and a random draw of the others, so the mix is not that of the screen.
Select the correct class. Options are 1 (yes) for active, 0 (no) for inactive and nothing else.

Per the assay record, what outcome was assigned to "O=C(O)CCn1cc(/C=C/C(=O)c2ccc(Cl)cc2)c(-c2cccc(Br)c2)n1" ?
1 (yes)

Please share the test call associated with CC1(C(=O)O)CCN1C(=O)/C=C/c1ccccc1 (stereo not given) .
0 (no)

Identify the outcome logged in this assay for the compound shown: CC1=C(C(=O)N2CCOCC2)CC(CC(=O)NCc2cccs2)C(=O)N1CCCN1CCCC1=O (stereo not given)
0 (no)

Lab log entry: "CCOC(=O)/C(C#N)=C/c1cn(CCC(=O)O)nc1-c1ccc(Br)cc1" — outcome as called in the assay?
0 (no)

Call for entry "CN1CCN(C(=O)c2ccc(NC(=O)c3ccc(Br)o3)cc2)CC1" :
0 (no)

I'd appreciate the recorded outcome for CC1(C(=O)NS(=O)(=O)c2ccccc2)CCN1C(=O)C/C=C/c1ccccc1 (stereo not given) from this test.
0 (no)

Please let me know the test result on file for "CC1(C)CCSC(/C=C/c2ccccc2)=N1" .
1 (yes)

In this assay, the call recorded for "CCOc1cc(NC(=O)c2ccccc2C(=O)O)c(OCC)cc1NC(=O)c1ccccc1F" was what?
0 (no)

# fetch the recorded call for CCCCN1C(=O)C(CC(=O)NCc2cccs2)CC(C(=O)N2CCCCCC2)=C1C (stereo not given) here
0 (no)

Could you please tell me the result logged for "c1ccc(Cn2nnc3c(NCC4CC4)ncnc32)cc1" in this assay?
0 (no)

====

# Assay Info: qHTS for induction of synthetic lethality in tumor cells producing 2HG: qHTS for the HT-1080-IDH1KD cell line
# Condition Parameters: HT-1080 IDH1 knockdown viability, ATP luminescence, 48 h; series mostly up to 46.1 µM
The campaign covered roughly 360,000 compounds. About 7,500 (2.1%) were called active. Roughly 8% stayed inconclusive and do not appear here. The call rests on the fitted dose curve; in most records, active means well fitted cell-killing curve with a large enough effect; inconclusive means small, poorly fitted or top-dose-only effect, or effect the other way, or another doubt; inactive means no such curve, though single readings can be large or run the other way. This is one part of a sample in which actives are shown more often than they occur.
Respond using exactly one of the listed classes: 1 = active, 0 = inactive

Please indicate how the test categorized "O=[N+]([O-])c1ccc(N=Cc2c(O)ccc3ccccc23)cc1" .
1

Tell me the assay call for "O=C(N[C@H]1CC[C@H](CC(=O)N2CCCCC2)O[C@@H]1CO)c1cccc(F)c1" please.
0

Entry "CN(C)CCN1CCN(c2cc(-c3cccc(Cl)c3)nc3ccnn23)CC1" : call = ?
0

Assay result, entry "Cc1cccc(CN2CCC(CNC(=O)Nc3ccc(F)c(Cl)c3)CC2)c1" — outcome?
1

# lookup: test call for "Cc1ccc(C)c(CN2CCC(CNC(=O)Nc3ccc(C)c(F)c3)CC2)c1"
0

Which outcome did this test record for the compound "O=C(Oc1ccc([N+](=O)[O-])cc1)c1ccc2ccccc2n1" ?
0

Please share the test call associated with O=C(NCCC1CCCCN1S(=O)(=O)c1cccs1)C(=O)Nc1ccc(F)cc1F (stereo unspecified) .
1

Record lookup: outcome of this test for COc1ccccc1CCNC(=O)C(=O)NCCC1CCCCN1S(=O)(=O)c1cccs1 (stereo unspecified) ?
0

Which outcome did this test record for the compound COC(=O)c1ccc(CN2C(=O)C(Cc3ccccc3)ON=C2c2ncccc2C)o1 (stereo unspecified) ?
0

Hi, sorry to bother you, what did the test record for "C/C(COc1ccccc1)=N\NC(=O)c1nnn(-c2nonc2N)c1-c1ccc(C)cc1" ?
0

Tell me the recorded outcome of this test for "CCc1nc2c(OCC(N)=O)cccn2c1N(C)C(=O)c1ccc(OC)cc1" .
0

Call for entry "COc1ccccc1Cc1c(-c2ccc(Cl)cc2)nc2c3ccccc3ccn12" :
0

Short answer needed: outcome of this test for O=C(NCCC1CCCCN1S(=O)(=O)c1ccc(F)cc1)C(=O)NC1CC1 (stereo unspecified) ?
0

Look up the recorded call for COc1cccc(C(NC(C)=O)c2nc(-c3ccccc3OC)cs2)c1 (stereo unspecified) in this test.
0

Record lookup: outcome of this test for "COc1ccc(NC(=O)N(C)C[C@@H]2OCc3cn(nn3)CCCC(=O)N([C@H](C)CO)C[C@H]2C)c(OC)c1" ?
0

What was the test verdict on CCCSc1nc(NCc2ccco2)c2c3c(sc2n1)COC(C)(CC)C3 (stereo unspecified) ?
0

Entry NCCCCC(C(=O)O)N(C(=O)OCc1ccccc1)C(=O)OCc1ccccc1 (stereo unspecified) : call = ?
0

What is the recorded call for this compound in the test? "Oc1ccccc1-c1cc(-c2ccc(Cl)cc2)n[nH]1"
1

What was the test verdict on CC(=O)c1ccc(OCC(=O)N(C)C2CCS(=O)(=O)C2)cc1 (stereo unspecified) ?
0

Status in this test for CCCCc1ccc(S(=O)(=O)NC(=O)C2(C)CCN2C(=O)c2ccccc2)cc1 (stereo unspecified) ?
0

What outcome does the record of this test show for "O=C(Nc1ccc(Cl)cn1)c1ccccc1-c1ccccc1" ?
0

====

# Assay Info: qHTS for induction of synthetic lethality in tumor cells producing 2HG: qHTS for the HT-1080-IDH1KD cell line; further: potency means the concentration at half of the fitted maximal effect
# Condition Parameters: HT-1080 IDH1 knockdown viability, ATP luminescence, 48 h; series mostly up to 46.1 µM
Screen size: about 360,000 compounds; about 7,500 (2.1%) were called active. About 8% were inconclusive and are not listed. What follows is part of a selection rich in actives, with near analogues and random picks from the rest.
Measured Metric: Potency

Some solved cases for reference:
- COc1cccc(-c2nnc(NC(=O)c3ccc(S(=O)(=O)N(CC(C)C)CC(C)C)cc3)o2)c1: 2590 nM (active)
- O=C(Nc1nnc(-c2ccco2)o1)c1ccc(S(=O)(=O)N2CCOCC2)cc1: inactive
- C[C@@H]1CN([C@@H](C)CO)S(=O)(=O)c2ccc(C#Cc3cccc(F)c3)cc2O[C@H]1CN(C)S(=O)(=O)c1cn(C)cn1: inactive
- Cc1cc(Br)cn2c(Cc3ccccc3C(F)(F)F)c(-c3ccc(Cl)cc3)nc12: inactive
- CC1(Oc2ccc(Cl)cc2)CCN(Cc2csc3ccccc23)C1 (stereo unspecified): inactive

API: the following record is the query input.
For the compound shown here, Cc1cccc(-c2cnc(C(O)c3cc(C)cc(C)c3)[nH]2)c1 (stereo unspecified) , give the reported Potency.
inactive

The values you see were collected from PubChem BioAssay AID686971.
